Measured growth by item
Tested on: SF-539 CNS
Experiment: NCI-60 one-dose screen, 48 h (100 = growth as untreated, 0 = no growth, -100 = all killed)
Experimental context: 10 µM unless noted
The panel holds about 83,000 compounds, 20% with a hit somewhere; the sample as a whole holds those more often.

- Compound: "COc1cnc2c(c1)C(=O)c1c-2n(CCCN2CCC(O)CC2)c(=O)c2cc(Cl)ccc12"
  growth / %: 14.7
- Compound: "N#Cc1c(-c2ccc(C(F)(F)F)cc2)c(F)c(NCCC2CCC(O)C2)n2c1nc1ccccc12 (centres undefined)"
  growth / %: 71.1
- Compound: "COC(=O)CNC(=O)[C@@H](OC)[C@@H]1Cc2cc3cc(OC4CC(OC5CC(O)C(O)C(C)O5)C(O)C(C)O4)c(C)c(O)c3c(O)c2C(=O)[C@H]1OC1CC(OC2CC(OC3CC(C)(O)C(O)C(C)O3)C(O)C(C)O2)C(O)C(C)O1 (some centres undefined)"
  growth / %: -28.7
- Compound: "CN1CCC(COc2cnc(-c3cccc(Cn4nc(-c5cccc(C#N)c5)ccc4=O)c3)nc2)CC1"
  growth / %: 33.5
- Compound: "Cc1ccsc1C(NC(=O)c1ccccc1)c1cc(Cl)c2cccnc2c1O (centres undefined)"
  growth / %: 18.7
- Compound: "Cc1cn(-c2cc(NC(=O)c3ccc(C)c(Nc4nccc(-c5cccnc5)n4)c3)cc(C(F)(F)F)c2)cn1"
  growth / %: 82.4
- Compound: "Cc1ccc(NC(=O)NC(=O)CSc2nc3ccccc3nc2C)cc1"
  growth / %: 65.5
- Compound: "Cn1cnc(-c2cc3nccc(Oc4ccc(NC(=S)NC(=O)Cc5ccccc5)cc4F)c3s2)c1"
  growth / %: 58.7
- Compound: "C#Cc1cccc(Nc2ncnc3cc4c(cc23)OCCOCCOCCO4)c1"
  growth / %: 80.5

All figures here come from PubChem BioAssay (NCI).
